ASSAY TARGET: Albumin (Bos taurus) (UniProt P02769)
Sequence (P02769 whole entry, looked up): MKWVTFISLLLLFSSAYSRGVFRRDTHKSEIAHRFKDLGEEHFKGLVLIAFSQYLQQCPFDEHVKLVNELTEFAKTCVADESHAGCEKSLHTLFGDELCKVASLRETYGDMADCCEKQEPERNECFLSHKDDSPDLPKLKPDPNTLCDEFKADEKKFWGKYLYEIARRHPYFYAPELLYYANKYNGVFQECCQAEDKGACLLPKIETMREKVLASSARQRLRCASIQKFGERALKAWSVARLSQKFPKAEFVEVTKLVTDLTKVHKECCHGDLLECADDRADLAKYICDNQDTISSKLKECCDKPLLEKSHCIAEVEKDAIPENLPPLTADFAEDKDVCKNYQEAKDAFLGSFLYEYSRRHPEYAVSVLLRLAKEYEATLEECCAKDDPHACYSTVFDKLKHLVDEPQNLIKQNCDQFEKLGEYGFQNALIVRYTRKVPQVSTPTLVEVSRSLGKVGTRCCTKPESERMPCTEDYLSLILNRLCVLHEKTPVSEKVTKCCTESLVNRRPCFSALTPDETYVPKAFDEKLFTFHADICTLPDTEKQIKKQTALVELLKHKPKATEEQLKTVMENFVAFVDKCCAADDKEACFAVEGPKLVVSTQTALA
ASSAY METHOD TEXT: bovine serum albumin binders on microarray, profiling panel, artefact control for SMM control protein annotation, biochemical, small-molecule microarray, Alexa647 label, 635/667 nm fluorescence (AID 1118);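 note: score merges 667 nm emission intensity and signal-to-noise per printed compound spot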
STUDY CONDITIONS: BSA-A647 binding, fluorescence 635 nm, higher = more signal
Reported composite z-score by item:

# example entries with known answers
{"COMPOUND": "C=CC[C@@H]1C=C[C@H](ON=Cc2ccc(C(=O)N3[C@H](c4ccc(C)cc4)[C@@H](C)CC[C@H]3C(=O)OC)cc2)[C@@H](CO)O1", "ASSAY TARGET": "Albumin (Bos taurus) (UniProt P02769)", "composite z-score": 0.36}
{"COMPOUND": "CC1(C)OCC(C(O)C2=CCCCC2=O)CO1 (centres undefined)", "ASSAY TARGET": "Albumin (Bos taurus) (UniProt P02769)", "composite z-score": 0.157}
{"COMPOUND": "CCc1cc2c(nc1CC)CCN(CCC(C)=NOC[C@@H](O)[C@H]1O[C@@H]3OC(C)(C)O[C@@H]3[C@H]1O)C2", "ASSAY TARGET": "Albumin (Bos taurus) (UniProt P02769)", "composite z-score": 0.424}

Now look at this entry.
Could you tell me which composite z-score is on file for CC(C)CN1CCc2nc(-c3ccccc3)c3c(c2CC1)CO[C@@H](C)C3 ?
-0.249

---

System: Sam68 (KHDRBS1)
ASSAY METHOD TEXT: Sam68 small-molecule binders, primary screen, biochemical, small-molecule microarray, 635 nm fluorescence (AID 1125);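 note: score merges 667 nm channel intensity with signal to noise over triplicate slides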
STUDY CONDITIONS: small-molecule microarray binding, higher = more signal
RECORDED METRIC: composite z-score
Answer with a bare number; do not write a unit.

# example entries with known answers
{"COMPOUND": "C=CC[C@@H]1C=C[C@H](ON=Cc2ccc(C(=O)N3[C@H](c4ccc(C)cc4)[C@@H](C)CC[C@H]3C(=O)OC)cc2)[C@@H](CO)O1", "VALUE": 0.632}
{"COMPOUND": "CC1(C)OCC(C(O)C2=CCCCC2=O)CO1 (stereo not drawn)", "VALUE": 0.826}
{"COMPOUND": "CC(C)(C)N1CC=CC23O[C@@H]4C=CCCOC(=O)C4[C@H]2C(=O)N(CCCCCO)[C@@H]3C1=O (stereo partly drawn)", "VALUE": 0.598}
{"COMPOUND": "COC(=O)CC=C[C@H](C)[C@H](CO)NS(=O)(=O)c1ccc(C)cc1", "VALUE": 0.217}
{"COMPOUND": "O=C1O[C@@H](c2ccccc2)[C@@H](c2ccccc2)N2[C@@H](c3ccc(OCCO)cc3)[C@]3(C(=O)Nc4ccc(C#CCCO)cc43)[C@@H](C(=O)N3CCCCCCC3)[C@H]12", "VALUE": 1.3}
{"COMPOUND": "C[C@@H](c1ccccc1)N1C(=O)[C@H]2[C@H]3[C@H](O)C=CC(=O)[C@@H]3CC[C@H]2C1=O", "VALUE": 0.456}

Could you tell me which composite z-score is on file for CC(C)CN1CCc2nc(-c3ccccc3)c3c(c2CC1)CO[C@@H](C)C3 ?
-0.168

Could you tell me which composite z-score is on file for CCCNC(=O)[C@@H]1c2ccccc2C(=O)N(c2ccc(C)cn2)[C@H]1c1ccc(CO)cc1 ?
-0.646

---

System: Lefty1
ASSAY METHOD TEXT: Lefty1 binders on small-molecule microarrays, primary screen, biochemical, small-molecule microarray, 635/667 nm fluorescence (AID 1139)
STUDY CONDITIONS: small-molecule microarray binding, fluorescence 635/667; higher = more signal
RECORDED METRIC: composite z-score
Answer with a bare number; do not write a unit.

{"SMILES DATA": "[N-]=[N+]=NCc1ccccc1[C@@H]1OC(c2ccc(OCCCO)cc2)=N[C@]1(Cc1ccccc1)C(=O)N1CCOCC1", "composite z-score": 0.115}
{"SMILES DATA": "C=CC[C@]1(C(=O)NCc2ccccc2)N=C(c2ccc(OCCCO)cc2)O[C@H]1c1ccccc1", "composite z-score": -0.0085}
{"SMILES DATA": "COC(=O)[C@H](C)NC(=O)[C@@H](C)CO", "composite z-score": 0.602}
{"SMILES DATA": "CC(C)NC(=O)[C@@]1(C)c2ccccc2C(=O)N(Cc2cc(F)cc(C(F)(F)F)c2)[C@H]1c1ccc(CO)cc1", "composite z-score": 0.0338}
{"SMILES DATA": "COC(=O)CC=C[C@@H](C)[C@H](OC)c1ccccc1Br", "composite z-score": 0.0835}
{"SMILES DATA": "COc1ccc(O[C@H]2C=C[C@@H](c3ccccc3)O[C@@H]2COC(=O)CCC(C)=NO[C@H](C)c2cn([C@@H]3COC[C@H]3O)nn2)cc1", "composite z-score": 0.701}

Could you tell me which composite z-score is on file for Cc1ccc(S[C@]2(C(=O)O)CC(=O)N(Cc3ccccc3)[C@@H]2c2ccc(CO)cc2I)cc1 ?
-0.69

Could you tell me which composite z-score is on file for CO[C@@H]1COC(=O)CC=C[C@@H](C)[C@H](OC)COC(=O)[C@H](COCc2ccccc2)NC(=O)CC=C[C@H]1C ?
1.12

---

ASSAY METHOD TEXT: small-molecule binders of probe aLefty1, primary screen, biochemical, small-molecule microarray, 635/667 nm fluorescence (AID 1153);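 note: score merges spot fluorescence with signal-to-noise ratio from the scanned slide images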
STUDY CONDITIONS: higher = more signal
Please enter yes (1) where composite z-score is greater than or equal to 0.04, and no (0) where it is lower.

{"COMPOUND": "CCCC[C@@H]1C[C@H]1[C@@H](NS(=O)(=O)c1cccc2cccnc12)c1ccc(-c2ccccc2)cc1", "GROUP LABEL": "no (0)"}
{"COMPOUND": "CCOC(=O)CCN1C(=O)[C@H]2[C@H]3[C@H](O)[C@H](O)CC(=O)[C@H]3CC[C@H]2C1=O", "GROUP LABEL": "no (0)"}
{"COMPOUND": "CN1C(=O)[C@@]2(CCC(=O)OC(C)(C)C)N=C(c3ccc(OCCCO)cc3)O[C@H]2c2ccccc21", "GROUP LABEL": "yes (1)"}

Determine whether this compound has composite z-score no lower than 0.04: O=C(CS)NCCCCCNC(=O)[C@@H]1C[C@@H]2C(=O)N[C@@H](Cc3ccccc3)C(=O)N2[C@@H]1c1ccc(O)cc1
yes (1)

Determine whether this compound has composite z-score no lower than 0.04: CO[C@H]1O[C@H](CO)[C@@H](OC(=O)Nc2ccc(C#N)cc2)[C@H](OC(=O)c2cc3ccccc3[nH]2)[C@H]1OC(=O)c1cc2ccccc2[nH]1
yes (1)

Determine whether this compound has composite z-score no lower than 0.04: CCc1cccc(NC(=O)O[C@H]2[C@H](OC(=O)Nc3ccc4c(c3)OCO4)[C@@H](OC(=O)Nc3ccc4c(c3)OCO4)[C@@H](OC)O[C@@H]2CO)c1
yes (1)

Determine whether this compound has composite z-score no lower than 0.04: CC(C)c1ccc(NN2C(C(O)c3ccc4c(c3)OCO4)C=CC3C(=O)N(c4ccccc4)C(=O)C32)cc1 (stereo not given)
no (0)

---

ASSAY METHOD TEXT: Plasmodium falciparum growth inhibition, primary screen, strain 3D7, DAPI fluorescence, 100 nL (AID 1184);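 note: parasites grown inside human red blood cells in medium with human serum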
STUDY CONDITIONS: P. falciparum 3D7 growth, 3 d, higher = more signal
Please enter fulfilled where z-score is greater than or equal to -0.5, and not fulfilled where it is lower.

{"MOLECULE": "COC(=O)CC=C[C@@H](C)[C@@H](C=NO[C@H](C)c1cn([C@@H]2COC[C@H]2O)nn1)OC", "GROUP LABEL": "fulfilled"}

Determine whether this molecule has z-score no lower than -0.5: CO[C@H]1COC(=O)[C@H](C)NC(=O)[C@@H](C)COC(=O)CC=C[C@@H]1C
fulfilled

Determine whether this molecule has z-score no lower than -0.5: Cc1ccc(C2CC=C(C(=O)O)CN2S(=O)(=O)c2ccc(C)cc2)cc1 (configuration not stated)
not fulfilled

Determine whether this molecule has z-score no lower than -0.5: O=C1[C@H]2[C@H]3[C@H](O)[C@H](O)CC(=NOCc4ccccc4)[C@H]3CC[C@H]2C(=O)N1c1ccc(F)cc1F
not fulfilled

Determine whether this molecule has z-score no lower than -0.5: CC(C)c1ccc(NN2C(C(O)c3ccc4c(c3)OCO4)C=CC3C(=O)N(c4ccccc4)C(=O)C32)cc1 (configuration not stated)
fulfilled

Determine whether this molecule has z-score no lower than -0.5: CO[C@@H]1COC(=O)CCC[C@@H](C)[C@H](OC)COC(=O)CCC[C@H]1C
fulfilled

Determine whether this molecule has z-score no lower than -0.5: CCc1cc2c(nc1CC)CCN(CCC(C)=NOC[C@@H](O)[C@H]1O[C@@H]3OC(C)(C)O[C@@H]3[C@H]1O)C2
fulfilled

Determine whether this molecule has z-score no lower than -0.5: COC(=O)[C@@H]1N=C(c2ccc(OCCCO)cc2)O[C@@H]1c1ccccc1N=[N+]=[N-]
not fulfilled

Determine whether this molecule has z-score no lower than -0.5: C[C@@H](c1ccccc1)N1C(=O)[C@H]2[C@H]3[C@H](O)[C@H](O)CC(=NNC(=O)OCc4ccccc4)[C@H]3CC[C@H]2C1=O
not fulfilled

Determine whether this molecule has z-score no lower than -0.5: CCN1C(=O)[C@H]2[C@H]3[C@H](O)[C@H](O)CC(=NOCc4ccccc4)[C@H]3CC[C@H]2C1=O
fulfilled

Determine whether this molecule has z-score no lower than -0.5: CC=CC1=C(CO)[C@H](O)[C@H]2O[C@H]2[C@H]1O
fulfilled

Determine whether this molecule has z-score no lower than -0.5: CC(C)NC(=O)[C@@]1(C)c2ccccc2C(=O)N(Cc2cc(F)cc(C(F)(F)F)c2)[C@H]1c1ccc(CO)cc1
fulfilled

Determine whether this molecule has z-score no lower than -0.5: COC(=O)C1(C)C=C2C(=C(c3ccccc3)C(=O)C2C)CN1 (configuration not stated)
fulfilled

Source: PubChem BioAssay
